Experiment: Pharmacokinetics of acetate of Compound 22 in SD rats with single and repeated administration
Format: in vivo
Details: male, Sprague-Dawley, rat, plasma, po, 63 mg/kg, Group 5 PO 63 mg/kg repeated, Day 1, Male, read-out: Tmax (median)
Test Readout: Tmax (h)
One number for each entry, in h.

Exercise: # get_value(readout='Tmax', item= CC(=O)O.Nc1nc(NCCc2ccc(NC3COC3)cc2)nc2nc(-c3ccco3)nn12 [Acetate of Compound 22] )
Key: 1

###

Assay: Pharmacokinetics of acetate of Compound 22 in SD rats with single and repeated administration
Assay type: in vivo
Conditions: male, Sprague-Dawley, rat, plasma, po, 189 mg/kg, Group 4 PO 189 mg/kg single, Male, read-out: Tmax (median)
Test Readout: Tmax
Remember to quote the unit after the number.

Exercise: # get_value(readout='Tmax', item= CC(=O)O.Nc1nc(NCCc2ccc(NC3COC3)cc2)nc2nc(-c3ccco3)nn12 [Acetate of Compound 22] )
Key: 4 h
